test system: DU-145; experiment: Cytotoxicity assay C50/G50, MTT or resazurin (Example 16); type: cell-based; conditions: day-3
Could you please mark rule met for values of C50 (concentration needed to kill 50% of the cellular population present at the beginning) below 30 µM and rule not met for values at or above it?

Examples from the recorded data:
CCCCCCc1ccc(NC(=O)NC(CCl)CCC)cc1 (racemic)    rule met
C[C@H](CCl)NC(=O)Nc1ccc(C2CCCCC2)cc1    rule met
CCCCCCc1ccc(NC(=O)N[C@H](C)CCl)cc1    rule not met
CCCCCCc1ccc(NC(=O)N[C@H](CC)CCl)cc1    rule met

Moving on to another compound below.
Inquiry: Given C[C@@H](CCl)NC(=O)Nc1ccc(C2CCCCC2)cc1 , is recorded C50 (concentration needed to kill 50% of the cellular population present at the beginning) strictly lower than 30 µM?
Reply text: rule met
